What follows is a record of GI50 for K562.
readoutType: GI50 (nM)

Below, each entry is followed by its recorded GI50 result.
querySmiles	GI50 (nM)
CC[C@@H]1C(=O)N(C)c2cnc(Nc3cc(F)c(C(=O)NC)cc3OCCO)nc2N1C1CCCC1	120
CCNC(=O)c1cc(OCCO)c(Nc2ncc3c(n2)N(C2CCCC2)[C@H](CC)C(=O)N3C)cc1F	86.3
CC[C@@H]1C(=O)N(C)c2cnc(Nc3ccc(C(=O)NC4CCCC4)cc3CCO)nc2N1C1CCCC1	57.4
CC[C@@H]1C(=O)N(C)c2cnc(Nc3ccc(C(=O)NC4CC4)cc3OCCO)nc2N1C1CCCC1	143

I = CC[C@@H]1C(=O)N(C)c2cnc(Nc3ccc(C(N)=O)cc3OCCO)nc2N1C1CCCC1
II = CC[C@@H]1C(=O)N(C)c2cnc(Nc3ccc(C(=O)NC4CCCC4)cc3C)nc2N1C1CCCC1
Just tell me: smaller GI50 value, I or II ? Refer to your chosen entry by its label in the reply. II

a = CC[C@@H]1C(=O)N(C)c2cnc(Nc3cc(F)c(C(=O)NCCN(C)C)cc3OCCO)nc2N1C1CCCC1
b = CC[C@@H]1C(=O)N(C)c2cnc(Nc3cc(F)c(C(=O)NCCN4CCN(C)CC4)cc3OCCO)nc2N1C1CCCC1
c = CC[C@@H]1C(=O)N(C)c2cnc(Nc3cc(F)c(C(=O)NC(C)C)cc3OCCO)nc2N1C1CCCC1
Endpoint returns the given compounds ordered by ascending GI50. Give the labels in the order requested. c, a, b

1 = CC[C@@H]1C(=O)N(C)c2cnc(Nc3ccc(C(=O)NC4CCN(C)CC4)cc3OC)nc2N1C1CCCC1
2 = CC[C@@H]1C(=O)N(C)c2cnc(Nc3cc(F)c(C(=O)NC4CCN(C)CC4)cc3OCCO)nc2N1C1CCCC1
3 = CC[C@@H]1C(=O)N(C)c2cnc(Nc3ccc(C(=O)NC4CCCC4)cc3OCCO)nc2N1C(C)C
List these items ordered by GI50, big to small. Give the labels in the order requested. 3, 1, 2

P = CC[C@@H]1C(=O)N(C)c2cnc(Nc3ccc(C(=O)NC4CCN(C(C)C)CC4)cc3OCCO)nc2N1C1CCCC1
Q = CC[C@@H]1C(=O)N(CCO)c2cnc(Nc3ccc(C(=O)NC4CCCC4)cc3OC)nc2N1C1CCCC1
R = CC[C@@H]1C(=O)N(C)c2cnc(Nc3cc(F)c(C(=O)NC4CCN(C)CC4)cc3OCCO)nc2N1C(C)C
List these items ordered by GI50, big to small. Give the labels in the order requested. Q, R, P
(Q: 4440 nM, R: 540 nM, P: 65.8 nM)

----------
What follows is a record of GI50 for HeLa.
readoutType: GI50 (nM)

Below, each entry is followed by its recorded GI50 result.
querySmiles	readoutType	endpointValue
CC[C@@H]1C(=O)N(C)c2cnc(Nc3cc(F)c(C(=O)NCCN4CCN(C)CC4)cc3OCCO)nc2N1C1CCCC1	GI50	225
CC[C@@H]1C(=O)N(C)c2cnc(Nc3ccc(C(=O)NC4CCCC4)cc3OCCO)nc2N1C(C)C	GI50	1120
CC[C@@H]1C(=O)N(C)c2cnc(Nc3cc(F)c(C(=O)NC(C)C)cc3OCCO)nc2N1C1CCCC1	GI50	28.4

A = CC[C@@H]1C(=O)N(C)c2cnc(Nc3cc(F)c(C(=O)NC4CCCC4)cc3OCCO)nc2N1C1CCCC1
B = CC[C@@H]1C(=O)N(C)c2cnc(Nc3cc(F)c(C(=O)NC4CCN(C)CC4)cc3OCCO)nc2N1C(C)C
C = CC[C@@H]1C(=O)N(C)c2cnc(Nc3ccc(C(=O)NC4CCN(C(C)C)CC4)cc3OCCO)nc2N1C1CCCC1
D = CC[C@@H]1C(=O)N(C)c2cnc(Nc3ccc(C(=O)NC4CCCC4)cc3C)nc2N1C1CCCC1
Endpoint returns the given molecules ordered by ascending GI50. Give the labels in the order requested. A, D, C, B

----------
Test system: HeLa
readoutType: GI50 (nM)

querySmiles	experimentalTarget	unitsSymbol	GI50
CC[C@@H]1C(=O)N(C)c2cnc(Nc3cc(F)c(C(=O)NC)cc3OCCO)nc2N1C1CCCC1	HeLa	nM	47.1

1 = CCCCNC(=O)c1ccc(Nc2ncc3c(n2)N(C2CCCC2)[C@H](CC)C(=O)N3C)c(OCCO)c1
2 = CC[C@@H]1C(=O)N(C)c2cnc(Nc3ccc(C(=O)NC4CCCC4)cc3OCc3ccccc3)nc2N1C1CCCC1
3 = CCNC(=O)c1cc(OCCO)c(Nc2ncc3c(n2)N(C2CCCC2)[C@H](CC)C(=O)N3C)cc1F
List these items ordered by GI50, big to small. Give the labels in the order requested. 2, 1, 3
(2: 466 nM, 1: 117 nM, 3: 39.4 nM)

----------
Tested on: K562
readoutType: GI50 (nM)

Below, each entry is followed by its recorded GI50 result.
compound	readoutType	endpointValue
CC[C@@H]1C(=O)Nc2cnc(Nc3ccc(C(=O)NC4CCCC4)cc3OC)nc2N1C1CCCC1	GI50	810
CCCCNC(=O)c1ccc(Nc2ncc3c(n2)N(C2CCCC2)[C@H](CC)C(=O)N3C)c(OCCO)c1	GI50	182

P = CC[C@@H]1C(=O)N(C)c2cnc(Nc3cc(F)c(C(=O)NC4CCCC4)cc3OCCO)nc2N1C1CCCC1
Q = CC[C@@H]1C(=O)N(C)c2cnc(Nc3ccc(C(=O)NC(C)C)cc3OCCO)nc2N1C1CCCC1
R = CC[C@@H]1C(=O)N(C)c2cnc(Nc3ccc(C(=O)NCCN4CCOCC4)cc3OCCO)nc2N1C1CCCC1
Endpoint returns the given compounds ordered by ascending GI50. Give the labels in the order requested. P, Q, R
(P: 10.6 nM, Q: 47.4 nM, R: 188 nM)

A = CC[C@@H]1C(=O)N(C)c2cnc(Nc3ccc(C(=O)NC4CCCC4)cc3O)nc2N1C1CCCC1
B = CC[C@@H]1C(=O)N(C)c2cnc(Nc3ccc(C(C)=O)cc3OCCO)nc2N1C1CCCC1
C = CC[C@@H]1C(=O)N(C)c2cnc(Nc3ccc(C(=O)NCCN(C)C)cc3OCCO)nc2N1C1CCCC1
D = CC[C@@H]1C(=O)N(C)c2cnc(Nc3ccc(C(=O)NC4CCN(C)CC4)cc3OCCO)nc2N1C(C)C
E = CC[C@@H]1C(=O)N(C)c2cnc(Nc3ccc(C(=O)NC4CCCC4)cc3OCCO)nc2N1C1CCCC1
List these items ordered by GI50, big to small. Give the labels in the order requested. D, E, C, B, A

A = CC[C@@H]1C(=O)N(C)c2cnc(Nc3cc(F)c(C(=O)NC4CCOCC4)cc3OCCO)nc2N1C1CCCC1
B = CC[C@@H]1C(=O)N(C)c2cnc(Nc3cc(F)c(C(=O)NCCN4CCOCC4)cc3OCCO)nc2N1C1CCCC1
Could you point out whether the larger GI50 belongs to A or to B ? Refer to your chosen entry by its label in the reply. B
(B: 100 nM, A: 60 nM)

----------
What follows is a record of GI50 for A549.
readoutType: GI50 (nM)

Below, each entry is followed by its recorded GI50 result.
querySmiles	unitsSymbol	GI50
CC[C@@H]1C(=O)N(C)c2cnc(Nc3ccc(C(=O)NC4CCOCC4)cc3OCCO)nc2N1C1CCCC1	nM	79.4
CC[C@@H]1C(=O)N(C)c2cnc(Nc3cc(F)c(C(=O)NC4CCOCC4)cc3OCCO)nc2N1C1CCCC1	nM	67.9
CC[C@@H]1C(=O)N(C)c2cnc(Nc3ccc(C(=O)NC4CCCC4)cc3OC)nc2N1C1CCCC1	nM	64.6

A = CC[C@@H]1C(=O)N(CCO)c2cnc(Nc3ccc(C(=O)NC4CCCC4)cc3OC)nc2N1C1CCCC1
B = CCCNC(=O)c1ccc(Nc2ncc3c(n2)N(C2CCCC2)[C@H](CC)C(=O)N3C)c(OCCO)c1
C = CC[C@@H]1C(=O)N(C)c2cnc(Nc3ccc(C(=O)NC4CCN(C(C)C)CC4)cc3OCCO)nc2N1C1CCCC1
D = CC[C@@H]1C(=O)N(C)c2cnc(Nc3ccc(C(C)=O)cc3OCCO)nc2N1C1CCCC1
E = CC[C@@H]1C(=O)N(C)c2cnc(Nc3cc(F)c(C(=O)NCCN(C)C)cc3OCCO)nc2N1C1CCCC1
Endpoint returns the given compounds ordered by ascending GI50. Give the labels in the order requested. D, C, B, E, A
(D: 87.6 nM, C: 138 nM, B: 470 nM, E: 1720 nM, A: 5020 nM)

----------
Tested on: A549
readoutType: GI50 (nM)

Below, each entry is followed by its recorded GI50 result.
querySmiles	GI50, nM
CC[C@@H]1C(=O)N(C)c2cnc(Nc3ccc(C(N)=O)cc3OCCO)nc2N1C1CCCC1	447
CC[C@@H]1C(=O)N(C)c2cnc(Nc3cc(F)c(C(=O)NC4CCOCC4)cc3OCCO)nc2N1C(C)C	1170

A = CC[C@@H]1C(=O)N(C)c2cnc(Nc3cc(F)c(C(=O)NC4CCCC4)cc3OCCO)nc2N1C1CCCC1
B = CC[C@@H]1C(=O)N(C)c2cnc(Nc3ccc(C(=O)NC4CCN(C)CC4)cc3OC)nc2N1C1CCCC1
C = CC[C@@H]1C(=O)N(C)c2cnc(Nc3cc(F)c(C(=O)NC4CCN(C)CC4)cc3OCCO)nc2N1C(C)C
D = CC[C@@H]1C(=O)N(C)c2cnc(Nc3ccc(C(=O)NC4CCCC4)cc3OCc3ccccc3)nc2N1C1CCCC1
E = CC[C@@H]1C(=O)N(C)c2cnc(Nc3ccc(C(=O)NCCN(C)C)cc3OCCO)nc2N1C1CCCC1
Endpoint returns the given compounds ordered by ascending GI50. Give the labels in the order requested. A, B, E, D, C
(A: 20.2 nM, B: 57.1 nM, E: 283 nM, D: 573 nM, C: 852 nM)
